Provenance of the data: paper PMC9687812

biological target: UniProt:Q96RJ0; test: BRET-based cellular cAMP (EPAC biosensor) assay of TAAR1 agonism in transfected HEK-293 cells; conditions: HEK293, read-out: Emax: maximum observed activation of TAAR1 relative to that observed for 1 μM of β-PEA
Sequence (Q96RJ0 whole entry): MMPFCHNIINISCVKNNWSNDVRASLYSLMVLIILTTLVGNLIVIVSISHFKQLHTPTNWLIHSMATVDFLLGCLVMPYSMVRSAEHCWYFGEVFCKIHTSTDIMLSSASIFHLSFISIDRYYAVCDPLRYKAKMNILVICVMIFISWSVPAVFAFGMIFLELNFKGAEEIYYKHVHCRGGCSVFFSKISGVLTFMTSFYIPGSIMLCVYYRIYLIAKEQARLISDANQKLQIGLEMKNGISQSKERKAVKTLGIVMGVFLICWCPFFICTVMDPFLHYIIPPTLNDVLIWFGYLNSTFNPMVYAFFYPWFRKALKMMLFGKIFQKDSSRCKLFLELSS
value kind: Emax (%)
Just the number please, in %, no unit attached.

Request: Read the entry `Cl.NCCc1nnc(-c2ccc(F)cc2)[nH]1` and write its reported Emax.
Result: 169

Request: Output measured Emax for this item: `Cl.NCCc1nnc(-c2cccs2)[nH]1`
Result: 138

Request: Provide measured Emax value, entry: `Cc1cc(-c2nnc(CCN)[nH]2)ccc1OCc1cccc(F)c1.Cl`
Result: 106

Request: Give Emax for the following compound: `Cc1cc(-c2nnc(CCN)[nH]2)ccc1OCc1ccc(F)cc1.Cl`
Result: 98

Request: Give the reported value of Emax for this record: `Cc1cc(-c2nnc(CCN)[nH]2)ccc1O.Cl`
Result: 90

###

Please respond with reported melting point for every item in the list.

Request: Consider the compound `CN(C)c1ccc(-c2nnc(CCN)[nH]2)cc1` and give its recorded melting point.
Result: 244 to 246 °C

Request: Query melting point for `Cl.NCCc1nnc(-c2ccc(-c3cc(F)cc(F)c3)cc2)[nH]1`
Result: 260 to 262 °C

Request: Return melting point for the following compound: `Cl.NCCc1nnc(-c2ccc(OCc3ccccc3F)c(I)c2)[nH]1`
Result: 208 to 209 °C

Request: Give reported melting point value for `Cc1cc(-c2nnc(CCN)[nH]2)ccc1OCc1ccccc1F.Cl`
Result: 234 to 236 °C

Request: Give me measured melting point, please, for this compound: `Cc1ccccc1-c1nnc(CCN)[nH]1.Cl`
Result: 235 to 236 °C

Request: Answer with reported melting point of `Cl.NCCc1nnc(-c2cccc(O)c2)[nH]1`
Result: 234 to 235 °C

Request: // fetch melting point given entry `Cc1cc(-c2nnc(CCN)[nH]2)ccc1I.Cl`
Result: 225 to 227 °C

Request: Consider the compound `Cc1ccc(-c2nnc(CCN)[nH]2)cc1C.Cl` and give its recorded melting point.
Result: 231 to 234 °C

Request: Note melting point for the compound shown: `Cl.NCCc1nnc(-c2ccc(OCc3ccccc3F)cc2)[nH]1`
Result: 232 to 235 °C

Request: Fill in reported melting point for this entry: `CCOc1ccc(-c2nnc(CCN)[nH]2)cc1.Cl`
Result: 235 to 236 °C

Request: Assign melting point to the following record: `Cl.NCCc1nnc(-c2ccncc2)[nH]1`
Result: 257 to 258 °C

Request: Please give measured melting point of the following entry: `Cl.NCCc1nnc(-c2ccc(-c3cccc(C(F)(F)F)c3)cc2)[nH]1`
Result: 210 to 212 °C

Request: Return reported melting point. Input compound: `COc1ccc(-c2nnc(CCN)[nH]2)cc1OC.Cl`
Result: 209 to 210 °C

Request: Look up and report measured melting point for this entry: `Cl.NCCc1nnc(-c2ccc3ncccc3c2)[nH]1`
Result: 265 to 267 °C

Request: Answer with reported melting point of `COc1cc(OC)cc(-c2nnc(CCN)[nH]2)c1.Cl`
Result: 245 to 247 °C

Request: For the compound `Cc1cc(-c2nnc(CCN)[nH]2)ccc1OCc1cccc(F)c1.Cl` , give its reported melting point.
Result: 215 to 216 °C

Request: Give recorded melting point. `COc1cccc(-c2nnc(CCN)[nH]2)c1.Cl`
Result: 235 to 236 °C

Request: Kindly indicate its recorded melting point. Item: `Cl.NCCc1nnc(C(c2ccccc2)c2ccccc2)[nH]1`
Result: 236 to 237 °C

Request: Identify measured melting point associated with `Cl.NCCc1nnc(-c2ccccc2)[nH]1`
Result: 250 to 252 °C
